- Tgt: T1, human TNFR2 (human, UniProt P20333 23-461)
- T1 construct: whole, on cells
- T1 sequence (looked up): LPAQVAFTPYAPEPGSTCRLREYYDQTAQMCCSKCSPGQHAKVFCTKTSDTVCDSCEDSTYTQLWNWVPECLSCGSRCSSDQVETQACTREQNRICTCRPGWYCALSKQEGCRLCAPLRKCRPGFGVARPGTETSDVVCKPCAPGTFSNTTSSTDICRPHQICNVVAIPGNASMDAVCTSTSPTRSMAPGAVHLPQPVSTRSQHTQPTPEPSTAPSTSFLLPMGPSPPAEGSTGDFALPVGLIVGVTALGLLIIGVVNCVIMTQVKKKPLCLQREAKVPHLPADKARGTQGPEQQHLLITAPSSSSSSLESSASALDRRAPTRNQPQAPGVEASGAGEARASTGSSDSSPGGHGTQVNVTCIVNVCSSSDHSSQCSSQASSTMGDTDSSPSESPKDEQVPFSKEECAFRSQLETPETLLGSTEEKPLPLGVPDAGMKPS
- Assay details: flow cytometry, HEK293 transfectants vs control cells
- Experimental: The binding affinity of anti-human CD40 antibodies to human and cynomolgus monkey CD40 was measured by Octet assay (Table 3), quantifying association rate (Kon), disassociation rate (Kdis), and equilibrium binding constant (KD). Cross-reactivity of anti-CD40 antibodies to related TNF receptor superfamily (TNFRSF) members was evaluated by expressing human TNFR1, TNFR2, TNFR10, or TNFR14 on HEK293 cells by transient transfection of expression vectors encoding these genes. […]
Property label: fold over control (gMFI) (fold)

4G7 (antibody, IgG4, V domains shown, also called 4869-1) VH: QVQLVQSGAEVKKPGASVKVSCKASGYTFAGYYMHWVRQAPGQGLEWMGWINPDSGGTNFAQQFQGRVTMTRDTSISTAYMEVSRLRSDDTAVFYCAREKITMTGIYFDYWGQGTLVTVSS VL: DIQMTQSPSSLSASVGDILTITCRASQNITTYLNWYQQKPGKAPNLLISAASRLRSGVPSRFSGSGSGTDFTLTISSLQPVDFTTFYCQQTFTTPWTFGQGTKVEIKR	0.9
35F11 (antibody, IgG4, V domains shown, also called 4868-1) VH: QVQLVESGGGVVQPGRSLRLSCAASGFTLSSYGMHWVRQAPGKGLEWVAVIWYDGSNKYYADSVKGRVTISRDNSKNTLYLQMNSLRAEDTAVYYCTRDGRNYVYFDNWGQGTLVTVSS VL: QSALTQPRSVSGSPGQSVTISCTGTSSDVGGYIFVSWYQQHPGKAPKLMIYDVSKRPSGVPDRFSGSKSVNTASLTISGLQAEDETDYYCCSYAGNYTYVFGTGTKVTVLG	0.85
29H10 (antibody, V domains shown, also called 4877-1) VH: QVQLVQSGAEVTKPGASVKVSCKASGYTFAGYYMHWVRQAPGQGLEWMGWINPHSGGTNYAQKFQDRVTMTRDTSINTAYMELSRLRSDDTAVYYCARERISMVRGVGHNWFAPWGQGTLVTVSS VL: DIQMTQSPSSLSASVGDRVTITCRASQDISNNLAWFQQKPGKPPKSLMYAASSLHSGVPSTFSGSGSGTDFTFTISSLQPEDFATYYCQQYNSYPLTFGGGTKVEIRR	0.88
